B1: library; a variant is named by its letters at N, in order (parent)
chain: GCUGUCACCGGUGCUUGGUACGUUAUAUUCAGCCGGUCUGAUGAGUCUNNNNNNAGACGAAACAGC

Variants of: B1
assayNotes: FACS-Seq fitted mean relative fluorescence mCherry/BFP with ligand (log10 relative fluorescence); HEK293T overexpressing SLC46A1; ligand concentration (+) FACS-Seq: 6 mM; higher = higher reporter protein expression
testConditions: with (6R,S)-folinic acid; ligand present: yes
assayMetric: FACS-Seq fitted mean (log10)
Respond using a number only.

Give the reported FACS-Seq fitted mean (log10) for this variant. UGAUCG
0.0432

Complete the entry with FACS-Seq fitted mean (log10) for ACGUAA
0.689

Note FACS-Seq fitted mean (log10) for the variant shown: ACAUAC
0.387

Tell me measured FACS-Seq fitted mean (log10) for AUCGAG please.
0.217

Check the records and state FACS-Seq fitted mean (log10) for UCUUGG
0.131

Given the variant GCAUAU , write its reported FACS-Seq fitted mean (log10).
-0.0866

Supply reported FACS-Seq fitted mean (log10) belonging to this variant: CGGGAU
0.0466

Please list FACS-Seq fitted mean (log10) recorded for the variant GUAGAU
0.494

Report measured FACS-Seq fitted mean (log10); entry is AGUUGA
0.105

Specify measured FACS-Seq fitted mean (log10) for ACGCCU .
-1.68

Given the variant UUUUGA , write its reported FACS-Seq fitted mean (log10).
0.704

Give me measured FACS-Seq fitted mean (log10), please, for this variant: GAGGGU
0.556

Give recorded FACS-Seq fitted mean (log10). UGACGC
0.284

Supply measured FACS-Seq fitted mean (log10) of GAUGAU in your reply.
0.199

Name the recorded FACS-Seq fitted mean (log10) of the variant listed here: UGGUAG
0.505

Note down FACS-Seq fitted mean (log10) recorded for UCCAGA
0.123

For the variant CGAACA , give its reported FACS-Seq fitted mean (log10).
0.446

Identify FACS-Seq fitted mean (log10) associated with the variant CCCCGA
-0.64

# return recorded FACS-Seq fitted mean (log10) for entry UGAUAA
0.632

Answer with the recorded FACS-Seq fitted mean (log10) for the variant listed here: UAGGGU
0.604

Name the recorded FACS-Seq fitted mean (log10) of the variant listed here: AGAUUA
0.535

Tell us which FACS-Seq fitted mean (log10) value is on record for UGAUGU
0.125

Supply recorded FACS-Seq fitted mean (log10) for UUCUAG here.
0.872

Check the records and state FACS-Seq fitted mean (log10) for UGGGAG
0.331

Output FACS-Seq fitted mean (log10) of UGAAGG
0.569

Answer with reported FACS-Seq fitted mean (log10) of GCAAGG
0.376

For the variant GCCGAG , give its measured FACS-Seq fitted mean (log10) value.
0.538

Please give the documented FACS-Seq fitted mean (log10) of UGUGUA
0.399

Determine from records and report FACS-Seq fitted mean (log10) for UUUCAG
-0.0672

Entry GGUUAU needs its FACS-Seq fitted mean (log10) filled in; supply it.
0.481

Identify measured FACS-Seq fitted mean (log10) corresponding to GCGUAA
0.2
